For each of the compounds below, state its pIC50.
TESTED SYSTEM: proteasome (Homo sapiens, UniProt P28074)
Construct: The obtained high molecular fraction (molecular weight >500K) was used as an enzyme solution for the detection of proteasome activity; endogenous in cells; host or cells: HeLa S3 cells: homogenate, 100,000G supernatant, >500K fraction from Centricon-500
EXPERIMENTAL PROTOCOL: Proteasome inhibitory activity (Suc-Leu-Leu-Val-Tyr-AMC cleavage, crude enzyme solution from HeLa S3 cell extract)
Type: biochemical
DETAILS: crude proteasome fraction (>500K) from HeLa S3 cells; substrate Suc-Leu-Leu-Val-Tyr-AMC; 37°C for one hour; read-out: IC50
Give bare numbers, as −log10 of the molar value.

Answered examples (2):
1. CCC(C)C1C(=O)OC1C(=O)NC1CC1CC(NC(=O)C(C)N(Cc1ccccc1)Cc1ccccc1)C(=O)OCc1ccccc1 (stereo not shown) :: 7.85
2. CC(C)C[C@@H]1C(=O)O[C@H]1C(=O)NCCCC[C@H](NC(=O)[C@H](C)N)C(=O)OCc1ccccc1 :: 7.52

Give pIC50 for each of the items listed below.
1. CCC(C)C1C(=O)OC1C(=O)NC1CC1CC(NC(=O)C(C)NC(C)=O)C(=O)OCc1ccccc1 (stereo not shown)
2. CC(C)C[C@@H]1C(=O)O[C@H]1C(=O)NC1CC1CC(NC(=O)[C@H](C)NC(=O)OC(C)(C)C)C(=O)NCc1cccc2ccccc12 (stereo partly shown)

Ans:
[7.57, 7.62]

* * *

TESTED SYSTEM: proteasome (Homo sapiens)
Construct: The obtained high molecular fraction (molecular weight >500K) was used as an enzyme solution for the detection of proteasome activity; endogenous in cells; host or cells: HeLa S3 cells: homogenate, 100,000G supernatant, >500K fraction from Centricon-500
EXPERIMENTAL PROTOCOL: Proteasome inhibitory activity (Suc-Leu-Leu-Val-Tyr-AMC cleavage, crude enzyme solution from HeLa S3 cell extract)
Type: biochemical
DETAILS: crude proteasome fraction (>500K) from HeLa S3 cells; substrate Suc-Leu-Leu-Val-Tyr-AMC; 37°C for one hour; read-out: IC50
PROPERTY LABEL: IC50 (µM)
Give bare numbers, in µM.

Below are worked cases with known answers.
1. CCC(C)C1C(=O)OC1C(=O)NC1CC1CC(NC(=O)C(C)NC(=O)OC(C)(C)C)C(=O)OCCO (stereo not shown) [Compound 16] :: 0.052
2. CC(C)CC1C(=O)OC1C(=O)NCCCC(NC(=O)OC(C)(C)C)C(=O)OCc1ccccc1 (stereo not shown) [Compound 58] :: 0.026
3. CCC(C)C1C(=O)OC1C(=O)NC1CC1CC(NC(=O)C(C)NC(=O)c1ccccc1)C(=O)OCc1ccccc1 (stereo not shown) [Compound 33] :: 0.015
4. CCC(C)C1C(=O)OC1C(=O)NC1CC1CC(NC(=O)C(C)N)C(=O)NCc1cccc2ccccc12 (stereo not shown) [Compound 22] :: 0.012

Give IC50 for each listed item.
1. CCC(C)C1C(=O)OC1C(=O)NC1CC1CC(NC(=O)C(C)NC(=O)OC(C)(C)C)C(=O)OCC(=O)c1ccccc1 (stereo not shown) [Compound 18]
2. CC(C)C[C@@H]1C(=O)O[C@H]1C(=O)NC1CC1CC(NC(=O)OC(C)(C)C)C(=O)NCc1cccc2ccccc12 (stereo partly shown) [Compound 90]
3. CCC(C)C1C(=O)OC1C(=O)NC1CC1CC(NC(=O)C(C)N)C(=O)OCc1ccccc1 (stereo not shown) [Compound 4]

Ans:
[0.012, 0.022, 0.03]

* * *

TESTED SYSTEM: proteasome (Homo sapiens)
Construct: The obtained high molecular fraction (molecular weight >500K) was used as an enzyme solution for the detection of proteasome activity; endogenous in cells; host or cells: HeLa S3 cells: homogenate, 100,000G supernatant, >500K fraction from Centricon-500
EXPERIMENTAL PROTOCOL: Proteasome inhibitory activity (Suc-Leu-Leu-Val-Tyr-AMC cleavage, crude enzyme solution from HeLa S3 cell extract)
Format: biochemical
Procedure: 1 x 10^9 of HeLa S3 cells were dispersed in 5 ml of the buffer A [20 mmol/L of Tris (pH 7.5), 2 mmol/L of ATP, 5 mmol/L of MgCl2, 1 mmol/L of dithiothreitol (DTT)], and then homogenized at 4°C. The supernatant centrifuged at 100,000G was concentrated by a Centricon-500 (supplied by Amicon) and diluted with 2.5 ml of the buffer B [25 mmol/L of Tris/HCl (pH 7.5), 2 mmol/L of ATP, 1 mmol/L of DTT, 20% of glycerol]. […]
pIC50: −log10 of the molar value.
// label = 1 if pIC50 is not less than 8, otherwise 0

Completed entries (count: 5):
1. CCC(C)C1C(=O)OC1C(=O)NC1CC1CC(NC(=O)C(C)NC(=O)OC(C)(C)C)C(=O)N[C@@H](C)C(=O)OCc1ccccc1 (stereo partly drawn) [Compound 27] :: 1
2. CCCCNC(=O)C(CC1CC1NC(=O)C1OC(=O)C1C(C)CC)NC(=O)C(C)N (stereo not drawn) [Compound 25] :: 0
3. CCC(C)C1C(=O)OC1C(=O)NC1CC1CC(NC(=O)C(C)N1C(=O)c2ccccc2C1=O)C(=O)OCc1ccccc1 (stereo not drawn) [Compound 42] :: 0
4. CCC(C)C1C(=O)OC1C(=O)NC1CC1CC(NC(=O)C(C)NC(=O)OC(C)(C)C)C(=O)OCC[Si](C)(C)C (stereo not drawn) [Compound 15] :: 0
5. CCC(C)C1C(=O)OC1C(=O)NC1CC1CC(NC(=O)C(C)NC(=O)OC(C)(C)C)C(=O)NCc1cccc2ccccc12 (stereo not drawn) [Compound 21] :: 1

Then there is this compound:
Q: // inclusive: pIC50 at least 8? input: CCC(C)C1C(=O)OC1C(=O)NC1CC1CC(NC(=O)C(C)NC(=O)OC(C)(C)C)C(=O)OC (stereo not drawn) [Compound 1]
Ans: 0

* * *

TESTED SYSTEM: proteasome (Homo sapiens)
Construct: The obtained high molecular fraction (molecular weight >500K) was used as an enzyme solution for the detection of proteasome activity; endogenous in cells; host or cells: HeLa S3 cells: homogenate, 100,000G supernatant, >500K fraction from Centricon-500
EXPERIMENTAL PROTOCOL: Proteasome inhibitory activity (Suc-Leu-Leu-Val-Tyr-AMC cleavage, crude enzyme solution from HeLa S3 cell extract)
Assay type: biochemical
DETAILS: crude proteasome fraction (>500K) from HeLa S3 cells; substrate Suc-Leu-Leu-Val-Tyr-AMC; 37°C for one hour; read-out: IC50
PROPERTY LABEL: IC50 (nM)
Answers are plain numbers, in nM.

1. CC(C)C[C@@H]1C(=O)O[C@H]1C(=O)NCCC[C@H](NC(=O)[C@H](C)NC(=O)OC(C)(C)C)C(=O)OCc1ccccc1 [Compound 59] :: 33

Provide IC50 values for the following items, in order.
1. CC(C)CC1C(=O)OC1C(=O)NCCCCCNC(=O)C1C(OCc2ccccc2)CCN1C(=O)OC(C)(C)C (stereo not shown) [Compound 54]
2. CCC(C)C1C(=O)OC1C(=O)NC1CC1CC(NC(=O)C(C)NS(C)(=O)=O)C(=O)OCc1ccccc1 (stereo not shown) [Compound 40]

Ans:
1. 47
2. 24

Q: For the compound CCCCOC(=O)C(CC1CC1NC(=O)C1OC(=O)C1C(C)CC)NC(=O)C(C)N (stereo not shown) [Compound 12] , report IC50.
Ans: 51

* * *

TESTED SYSTEM: proteasome (Homo sapiens)
Construct: The obtained high molecular fraction (molecular weight >500K) was used as an enzyme solution for the detection of proteasome activity; endogenous in cells; host or cells: HeLa S3 cells: homogenate, 100,000G supernatant, >500K fraction from Centricon-500
EXPERIMENTAL PROTOCOL: Proteasome inhibitory activity (Suc-Leu-Leu-Val-Tyr-AMC cleavage, crude enzyme solution from HeLa S3 cell extract)
Assay type: biochemical
DETAILS: crude proteasome fraction (>500K) from HeLa S3 cells; substrate Suc-Leu-Leu-Val-Tyr-AMC; 37°C for one hour; read-out: IC50
Protocol: 1 x 10^9 of HeLa S3 cells were dispersed in 5 ml of the buffer A [20 mmol/L of Tris (pH 7.5), 2 mmol/L of ATP, 5 mmol/L of MgCl2, 1 mmol/L of dithiothreitol (DTT)], and then homogenized at 4°C. The supernatant centrifuged at 100,000G was concentrated by a Centricon-500 (supplied by Amicon) and diluted with 2.5 ml of the buffer B [25 mmol/L of Tris/HCl (pH 7.5), 2 mmol/L of ATP, 1 mmol/L of DTT, 20% of glycerol]. […]
PROPERTY LABEL: IC50 (nM)
Give bare numbers, in nM.

Completed entries (count: 4):
1. CCC(C)C1C(=O)OC1C(=O)NC1CC1CC(NC(=O)C(C)NC=O)C(=O)OCc1ccccc1 (stereo not shown) :: 38
2. CC(C)CC1C(=O)OC1C(=O)NCCCCCNC(=O)C(C)NC(=O)OC(C)(C)C (stereo not shown) :: 250
3. CCC(C)C1C(=O)OC1C(=O)NC1CC1CC(NC(=O)C(C)NC(=O)c1cnccn1)C(=O)OCc1ccccc1 (stereo not shown) :: 21
4. CCC(C)C1C(=O)OC1C(=O)NC1CC1CC(NC(=O)C(C)NC(=O)OC(C)(C)C)C(=O)OCOC (stereo not shown) :: 19

Need IC50 for each of these compounds.
1. CC(C)CC1C(=O)OC1C(=O)NCCCC(NC(=O)C(C)N)C(=O)OCc1ccccc1 (stereo not shown)
2. CCC(C)C1C(=O)OC1C(=O)NC1CC1CC(NC(=O)C(C)NC(=O)OC(C)(C)C)C(=O)OCc1c2ccccc2cc2ccccc12 (stereo not shown)
3. CC(C)CC1C(=O)OC1C(=O)NCCCCCC(=O)OCc1ccccc1 (stereo not shown)

Ans:
40
17
77
